molecular target: HLA-B*08:01 (recombinant MHC class I molecule) (human); experiment: REVEAL MHC-peptide binding assay, recombinant HLA-B*08:01; details: remark: other sources report otherwise
READOUT NAME: In Vitro Score (score, % of positive control peptide)

- BINDER: "IFWVSRGRK"
  ENDPOINT RESULT: 0

I: WVKRGSKKL
II: WVQRGNKKL
Lab log: flag the item ( I or II ) with the smaller In Vitro Score (score, % of positive control peptide) figure. Answer by quoting the chosen item's label.
II
